# Method summary: folding stability dG unfold from trypsin proteolysis; higher = more stable
Label rule met when folding stability dG unfold is at or above 1 kcal/mol; anything below gets rule not met.

>>> assigned_category("SAGGSAGGSAGGTLEAIKELAKDMPPGDKNIPIKIPDGKPYTIDVEMDPDGKMEIDIEPSAGGSAGGSAGGS [r10_1017_TrROS]")
"rule met"
>>> assigned_category("SAGGSAGGSKAEVFETPDGLVVVVVPTEDSVRAFVFFPDGYIAEFDFPTGKIVRIFSPDEEIASAGGSAGGS [r12_235_TrMRF]")
"rule met"
>>> assigned_category("SAGGSAGGSAGGLEEIRENGEALVFYPDGRVYRVDLKTGKITPPPGFKPENIVRVVFVKKSAGGSAGGSAGG [r7_566_TrMRF]")
"rule not met"
>>> assigned_category("SAMIMIRVEYPNGKTWPIMIPLRTPDGDPTKEEVEEIAERIADEIAEEHGGDNVKIEIQVMPMPPEENPSAG [r14_378_TrROS]")
"rule met"
>>> assigned_category("SMEEAIEEAIKKNEEAIAAGGGPVKVELEVPGYRIDLTFSPNGLKITNIEEKNSPDGIPSVKSTSDVPPPSA [r9_308_JUSTAS]")
"rule not met"
>>> assigned_category("SAGGSAGGSAGGLPEDIELEVEPLEITLEDGSRVRILIARAPDPEIAAIDIEVFPPDDPKSAGGSAGGSAGG [r11_338_TrMRF]")
"rule not met"
>>> assigned_category("SAGGSAGGSAGSVTVTFISLEEGERYLVLTELRFGDYGIESRSTRIEVSDEKLEELKKAFSAGGSAGGSAGG [r11_47_TrMRF]")
"rule met"
>>> assigned_category("SAGGEIPPNAKIDELEISPGSGYIRIKVEFYDPDGKPIWKMTITIPIKPVPRPSPEDQKEQNKKNKKSAGGS [r16_697_TrROS]")
"rule met"
>>> assigned_category("SAGMETVTVEVDGATITFVKNEDGTVTAIVTYPNGEVEIYNADGELIRRERLPNGLVVFEFTKEELEKLSAG [r5_457_TrROS_Hall]")
"rule met"
>>> assigned_category("SAGGSAGGPPPYYMVEIEIERRNPKNGKKQKFPVTVIMPPKEAEKIKDELEEWGYEIKVDVHPISAGGSAGG [r6_97_TrROS]")
"rule not met"
>>> assigned_category("SAGGSAGGSMKIPSDYTLTPIETKDNGASTVTLEKVTYPGPSLLATFLTPPDGTVTLLEVKPVSAGGSAGGS [r20_103_JUSTAS]")
"rule not met"
>>> assigned_category("SAGGSAKIPVMFMIESPEQIIELVDEFAPPGHEVKVKIDNVEPFPMREDGEERPYYMFRVTIEFPPSAGGSA [r15_95_TrROS]")
"rule met"
>>> assigned_category("SAGGMKLPENAKVVKKIEIKDEKTGKTFKATIVKNKDGSLYIFIEKDGKIYKFKIENGKIKMEEIPPSAGGS [r16_711_TrROS_Hall]")
"rule met"
>>> assigned_category("SAGGSAGGSEKTIKITIKVKVKKKVTVKNKNGEKKTFEFEEKTYTLTTIKFDSKEDALKALKKSAGGSAGGS [r12_452_TrROS_Hall]")
"rule met"

---

# Method summary: folding stability dG unfold from chymotrypsin proteolysis; higher = more stable
Label fulfilled when folding stability dG unfold is at or above 1 kcal/mol; anything below gets not fulfilled.

>>> assigned_category("SAGGSAGGSAGPENKNYMVMEMTIDIWIPLPPNAKVVFDPDEGKWKYVPIKIPIRIVMPWSAGGSAGGSAGG [r11_257_TrROS]")
"fulfilled"
>>> assigned_category("SAGGSAGGMIYKFTYPKGEPPLLFTYDPSTGKVTVTEPKTGKPLGTVDLSLEEAVKAGARIEPVSAGGSAGG [r6_832_JUSTAS]")
"not fulfilled"
>>> assigned_category("SAGGSAGGSAGEVLIVAPAALLKEAIGPGVEVLAVDDDVVVVRVPVPPVPLTDANGNPLPSAGGSAGGSAGG [r11_828_TrMRF]")
"not fulfilled"
>>> assigned_category("SAGGSASVEIIFDPNKPTVTIYVPGPVDPNEPITLTLPGGPSLTITEIEVEKIGKEYVVKAKVTKLSAGGSA [r15_838_JUSTAS]")
"fulfilled"
>>> assigned_category("SAGGALEKILEAIENAPTSVPEVTVEIELPTGTLKATITNKGKPVLITIELTHPDGSKSTITLTFSLSAGGS [r16_642_TrMRF]")
"fulfilled"
>>> assigned_category("SAGASVEQWSLTSVEVTELPGPEVVVPMTARLPDGTEVVMSGVVGPGSVTLTSPDGSTSTLAIPPALASAGG [r19_84_JUSTAS]")
"not fulfilled"
>>> assigned_category("SAGGSAGGSAMPEPVLIVVEVESLEEAKKLAEELAVEGVKVEVDPESGLVKIEIEKESLLESAGGSAGGSAG [r3_186_TrMRF]")
"fulfilled"
>>> assigned_category("SAGGSAGGSAGGGSMPVTERIPGSPSSVTTTTFPDGTVTTETTAGPPVTLSPAGGSTLVSAGGSAGGSAGGS [r10_664_JUSTAS]")
"fulfilled"
>>> assigned_category("SAGGSAMPVVELPIGPELYEKIKEAAEAGDPDKVITLPLKLPNGEEVTLVVEADPATPEFRARVELSAGGSA [r15_700_TrMRF]")
"not fulfilled"
>>> assigned_category("SAGGSAGGSAGGSDNDGAKPPKIKVEIHPVNMPPGDIVVHNDHYVIAFPNGWFFVIRPKSAGGSAGGSAGGS [r4_394_TrROS]")
"fulfilled"
>>> assigned_category("PGEMVPIEWPVKVRVRDPNGPGNKKREVEIPIEYPYPPGQKDPEQMLEMAHELAEELAEKEGPKDVEIEPIS [r1_300_TrROS]")
"not fulfilled"
>>> assigned_category("SAGGSAGGSGSTVVEVEFPDARIVITVEPPGVLTVTVERPPFPVETVRLPDMTVEEAVAYALASAGGSAGGS [r20_8_JUSTAS]")
"fulfilled"
>>> assigned_category("SAGFTIEIENEDGKKITFRFPGWKIEIYPKDGIIMMRYPEENMSIMIKVDPNKIKIQVYDGGKWRWFPISAG [r5_786_TrROS]")
"fulfilled"
>>> assigned_category("SAGGSAGGSAGKKTYKLVIPVKPDKTVEEIAEEVKKLLGPGSKVEVEEKEDGFATVYVESSAGGSAGGSAGG [r17_20_TrMRF]")
"not fulfilled"
>>> assigned_category("SAGGSAGGSAGGSFDIEQERNPENGYHRVTIDFPNGPPVEIWMPPGSTLEQIEDLAKQFSAGGSAGGSAGGS [r4_205_TrROS]")
"not fulfilled"
>>> assigned_category("SAGGSAGGSGSSTEVTTTTLPDTSYTTTNSTTTTFSPDQPEAVEAGLPVPSTVTTTTTTSPAGSAGGSAGGS [r20_138_JUSTAS]")
"not fulfilled"
>>> assigned_category("SAGGSAGGSAGGGMKTKTTISTHPGPGGKTRVLVEVDPKKGLLTWRDPSDPSATTVVPLGSAGGSAGGSAGG [r7_992_JUSTAS]")
"not fulfilled"
>>> assigned_category("SAGMPIRVRLLVERPALDPETGEPVVERREVVLTLHPEEIASGIPVEELAKELEKAFPGAKVTVLEVSSAGG [r19_110_TrMRF]")
"fulfilled"
>>> assigned_category("SAGGSAGGSAGSNVVYLGEEVITEVDPYSDKPYTVKVKVYLEPTPEGEKIIEEVLEKELLSAGGSAGGSAGG [r11_113_JUSTAS]")
"not fulfilled"
>>> assigned_category("SAGGKPKVEIKIEEIPVDGELYLVIEIKVEEKNATLTLTLPNGEEITMEFDEETGTVRIIARIPLEDLSAGG [r13_380_TrROS_Hall]")
"fulfilled"
>>> assigned_category("SAGGSAGGSAGSMLLSLSIASVETTETTEIDPETGEKRKVTTTTITIPGTGQTITLTETVESAGGSAGGSAG [r3_424_JUSTAS]")
"not fulfilled"
>>> assigned_category("SAGGSAGGSAGGSGPDETILVTRKVTTTEPVLLEHDGTPRVRERTVTRTSSTTERVDLSSAGGSAGGSAGGS [r4_271_JUSTAS]")
"not fulfilled"
>>> assigned_category("SAGGSAPPKRRERIIQIPIKMKPGQTADEMVDNIADWIMDLLPPDMRIEIEVEYHPENGWIMVKIESAGGSA [r15_739_TrROS]")
"fulfilled"
>>> assigned_category("SAGGSAGGSAGGMIIVPVVTEETVDVTFRKTPEGVWEPVGPQTITTTTTLTIDPTKGRLSAGGSAGGSAGGS [r10_93_JUSTAS]")
"not fulfilled"
>>> assigned_category("SAGGSAGGSAGGMTKLEPLATEPNPLKVLTKVTTTDPVTGKPKTTIVETEIPVPESELGSAGGSAGGSAGGS [r10_846_JUSTAS]")
"not fulfilled"
>>> assigned_category("SAGGSAGGSAGKPITADEVAERVARRLRELFGPDYDINVKVVKVLPGDYVLVDVEITGDLSAGGSAGGSAGG [r11_153_TrMRF]")
"fulfilled"
>>> assigned_category("SAGGSAGGSAMKTFTKTFSSPEEAERAAEEIKEKLEKEGKKVKITFEKPETDTYIVTITIESAGGSAGGSAG [r3_211_JUSTAS]")
"fulfilled"
